# Target Under Test: Dual specificity mitogen-activated protein kinase kinase 7 (Homo sapiens)
# Sequence (O14733 whole entry): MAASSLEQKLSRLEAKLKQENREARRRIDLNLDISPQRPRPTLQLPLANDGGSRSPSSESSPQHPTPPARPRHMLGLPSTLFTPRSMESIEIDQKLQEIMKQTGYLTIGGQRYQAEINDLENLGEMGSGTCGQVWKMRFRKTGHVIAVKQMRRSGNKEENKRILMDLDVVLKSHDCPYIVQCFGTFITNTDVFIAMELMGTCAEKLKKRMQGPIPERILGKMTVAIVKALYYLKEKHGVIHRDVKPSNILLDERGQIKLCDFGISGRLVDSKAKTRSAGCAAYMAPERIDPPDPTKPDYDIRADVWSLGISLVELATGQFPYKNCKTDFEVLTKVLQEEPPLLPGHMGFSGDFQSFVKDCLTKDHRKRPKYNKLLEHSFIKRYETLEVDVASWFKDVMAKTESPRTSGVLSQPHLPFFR
# Assay Method Text: Inhibition of MEK7 (unknown origin)
Measured Metric: IC50 (µM)

a. O=C(O)CCSC1=CC(=O)c2ccccc2C1=O
b. O=C(O)c1cccc(NC2=CC(=O)c3ccccc3C2=O)c1
Q) Kindly compare a with b and tell me which has the lower IC50 figure. Please respond with the label that marks your chosen entry.
A) a
(a: 0.23 µM, b: 1.9 µM)

====

# Target Under Test: Dual specificity mitogen-activated protein kinase kinase 6 (Homo sapiens)
# Sequence (P52564 whole entry): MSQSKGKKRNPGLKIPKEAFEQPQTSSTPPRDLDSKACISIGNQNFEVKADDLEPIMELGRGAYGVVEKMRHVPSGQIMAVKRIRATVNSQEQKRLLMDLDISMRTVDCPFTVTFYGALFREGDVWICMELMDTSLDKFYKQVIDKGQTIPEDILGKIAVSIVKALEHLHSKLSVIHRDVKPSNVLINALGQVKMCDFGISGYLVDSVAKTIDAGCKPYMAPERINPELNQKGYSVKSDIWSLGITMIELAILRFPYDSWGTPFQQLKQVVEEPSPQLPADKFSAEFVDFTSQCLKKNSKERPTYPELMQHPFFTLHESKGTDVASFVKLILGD
# Assay Method Text: Inhibition of MEK6 (unknown origin)
Measured Metric: IC50 (µM)
Report the value in µM with no unit label.

Q) Form entry - test system: Dual specificity mitogen-activated protein kinase kinase 6 (Homo sapiens); read-out: IC50; compound: C=C(CC)C(=O)c1ccc(OCC(=O)O)c(Cl)c1Cl
A) 4.5
